total protein half-life in vivo: recorded values
- testName: total protein half-life in vivo (active degradation + dilution); higher = more stable protein
- conditionDescription: wild type E. coli NCM3722; growth: C-lim chemostat; doubling time 6 h

| sequenceContent | total protein half-life in vivo / h |
| --- | --- |
| MTVETQLNPTQPVNQQIYRILRRDIVHCLIAPGTPLSEKEVSVRFNVSRQPVREAFIKLAENGLIQIRPQRGSYVNKISMAQVRNGSFIRQAIECAVARRAASMITESQCYQLEQNLHQQRIAIERKQLDDFFELDDNFHQLLTQIADCQLAWDTIENLKATVDRVRYMSFDHVSPPEMLLRQHLDIFSALQKRDGDAVERAMTQHLQEISESVRQIRQENSDWFSEE [P0ACM2] | 6.44 |
| MARTKLKFRLHRAVIVLFCLALLVALMQGASWFSQNHQRQRNPQLEELARTLARQVTLNVAPLMRTDSPDEKRIQAILDQLTDESRILDAGVYDEQGDLIARSGESVEVRDRLALDGKKAGGYFNQQIVEPIAGKNGPLGYLRLTLDTHTLATEAQQVDNTTNILRLMLLLSLAIGVVLTRTLLQGKRTRWQQSPFLLTASKPVPEEEESEKKE [P0AGC7] | 6.19 |
| MGMIGYFAEIDSEKINQLLESTEKPLMDNIHDTLSGLRRLDIDKRWDFLHFGLTGTSAFDPAKNDPLSRAVLGEHSLEDGIDGFLGLTWNQELAATIDRLESLDRNELRKQFSIKRLNEMEIYPGVTFSEELEGQLFASIMLDMEKLISAYRRMLRQGNHALTVIVG | 4.04 |
